Reference source for all entries: ChEMBL document CHEMBL3352587

Test system: Trypanosoma cruzi
Assay: Inhibition of recombinant Trypanosoma cruzi trans-sialidase catalytic N-terminal domain preincubated at 1 mM for 10 mins by continuous fluorimetric assay
Calls of active or inactive are those of the source. The rule behind the calls is not given here.
valueType: inhibition

Solved entries:
1) CCCCCCCCO[C@@H]1O[C@H](CO)[C@H](O)[C@H](OC)[C@H]1O | 13%
2) COC(=O)c1ccc(O[C@@H]2O[C@H](CO)[C@H](O)[C@H](OCC(=O)O)[C@H]2O)cc1 | inactive
3) COC(=O)c1ccc(O[C@@H]2O[C@H](CO)[C@H](O)[C@H](OCc3nnn[nH]3)[C@H]2O)cc1 | inactive
4) COC(=O)c1ccc(O[C@@H]2O[C@H](CO)[C@H](O)[C@H](OCC(=O)O)[C@H]2O)c([N+](=O)[O-])c1 | 21%
5) COC(=O)c1ccc(O[C@@H]2O[C@H](CO)[C@H](O)[C@H](OCc3nnn[nH]3)[C@H]2O)c([N+](=O)[O-])c1 | 18%
6) COC(=O)c1ccc(O[C@@H]2O[C@H](CO)[C@H](O)[C@H](OCC(=O)OC(C)(C)C)[C@H]2O)c([N+](=O)[O-])c1 | inactive
7) COC(=O)c1ccc(O[C@@H]2O[C@H](CO)[C@H](O)[C@H](OCC#N)[C@H]2O)cc1 | 7%

With those in mind, consider the next compound.
Req: Fill blank: measured inhibition of the compound COC(=O)c1ccc(O[C@@H]2O[C@H](CO)[C@H](O)[C@H](OC)[C@H]2O)cc1 is ____.
Resp: 7%

----------
System: Trypanosoma cruzi
Assay: Inhibition of recombinant Trypanosoma cruzi trans-sialidase catalytic N-terminal domain preincubated at 1 mM for 10 mins by continuous fluorimetric assay
Calls of active or inactive are those of the source. The calls are words filed in the database; no cut-off is given here.
valueType: inhibition

Below: 5 molecules and their reported inhibition.
1) COC(=O)c1ccc(O[C@@H]2O[C@H](CO)[C@H](O)[C@H](OCC#N)[C@H]2O)c([N+](=O)[O-])c1 | inactive
2) COC(=O)c1ccc(O[C@@H]2O[C@H](CO)[C@H](O)[C@H](OC)[C@H]2O)c([N+](=O)[O-])c1 | 16%
3) COC(=O)c1ccc(O[C@@H]2O[C@H](CO)[C@H](O)[C@H](OCC(=O)OC(C)(C)C)[C@H]2O)cc1 | inactive
4) COC(=O)c1ccc(O[C@@H]2O[C@H](CO)[C@H](O)[C@H](O)[C@H]2O)cc1 | 11%
5) COC(=O)c1ccc(O[C@@H]2O[C@H](CO)[C@H](O)[C@H](O)[C@H]2O)c([N+](=O)[O-])c1 | 16%

# input for lookup
Req: Trypanosoma cruzi / inhibition / Cc1ncc(COP(=O)(O)O)c(C=O)c1O : value?
Resp: 68%
